The values you see were collected from the supplement of paper PMC8728848.

Tested Target: Neu5Ac(a2-3)Gal(b1-4)GlcNAc(b1-3)Gal(b1-4)[Fuc(a1-3)]GlcNAc
Experimental Details: glycan array binding signal (z-score within array); higher = stronger binding
Settings: glycan notation: IUPAC condensed, linker removed
This is one part of a sample in which the strongest signals are shown more often than they occur.

{"columns": ["Binder", "glycan array binding signal (z-score)"],
 "data": [
  ["Tectonin 2 (Laccaria bicolor) (protein) MPWKGISGSLSRISAGSVTNVWGVNAANNIYRYTGDDAKPWVQIPGALTDIGAAADGTVWGVNAAGNIYRYVWDSNHWTQIKGALKRISAGSRTNVWGVNAGGAIYRYTGDDANPWVQIPGVLSDIGAGADGTVWGVNAAGEIYRYTGDQGDPNHWVKIPGALSAISAGIKTNVWGVNSANNIYTSTGDDKNPWLGIGGSLVDIGAGTDGVVWGVNAGGGIYRWIRD", 2.47],
  ["AT1G73650(15) (Arabidopsis thaliana), F4HRY1 (protein) MGTVLDSHFLALTAIVTVIYQFIFFVITALFKFDQVTDFAGSTNFVILAVLTLVLKASWHFRQIVLTLLVVVWGLRLGIFLLMETRILQWGEDRRFDEQRGNIVRLIIFWTLQAVWVWTVSLPLTLVNASDGGGSLKPADVIGWTMETWVFGFLIEAAADQQKLSFKNSPENRGKWCDVGVWKYSRHPNYFGEMETLLWWGIFVAASPVLEGAEYLVIFGPLFLTLLLLFVSGIPLLEASADKKHGNSGAYRSYKKTTSPLILFPRGVYGNLPGWFKTVFLFEFPFYSRNLPQEGRLQNSKEKEVKDD", 1.23],
  ["ArathEULS3 (Arabidopsis thaliana), Q945P1 (protein) MEHHHQHHRHHQRDDGEDDRQSFGVPPPHVDAPPQPHGLYQSQPHFDPYAPTPQAPAPYRSETQFEPHAPPPYRSEPYFETPAPPPSFGHVSHVGHQSPNESYPPEHHRYGGYQQPSNSLLESHGDHSGVTHVAHHSSNQPQSSSGVYHKPDENRLPDNLAGLAGRATVKVYSKAEPNYNLTIRDGKVILAPADPSDEAQHWYKDEKYSTKVKDADGHPCFALVNKATGEAMKHSVGATHPVHLIRYVPDKLDESVLWTESKDFGDGYRTIRMVNNTRLNVDAYHGDSKSGGVRDGTTIVLWDWNKGDNQLWKIFPFILEQKLISEEDLNSAVDHHHHHH", -0.229],
  ["AT3G09350(27) (Arabidopsis thaliana), Q84J81 (protein) MAKDGPNWDGLLKWSLSHADGTRPTRQLSEEDRKWFMEAMQSQTVDVVKRMKEITLVMQTPEQVLVEHGVTPEDIQDLLDELQEHVESIDMANDLHSIGGLVPLLSFLKNSHANIRAKAADVVSTIVQNNPRSQELVMETNALESLLSNFTSDTDIHARTQALGAISSLIRHNKPGVTAFKLANGYAGLRDALASDSVRFQRKALNLLQYLLQEDDSDRSIATGLGFPRVMMHLASSDDAEIREAALRGLLELSREKNDGSSSIDKSDEKLRQLLEERIKGITLMSQEDLETVKEERQLVDLLWSICYNEPSSLREKGLVVLPGEDALPPDVASKLFEPPLRASAANRNATEKKDEPMKLLGP", -0.305]
]}
